Where do these numbers come from? They come from patent US9217014B2.

test: Solubility in non-aqueous solvents; assay type: physicochemical; conditions: organic solvent or mixture; PEG400; compound 1 as acetate salt
*1 amine or outer side, *2 acyl side, *3 side chain or, on linkers, in order; H or OH if unused. Where a SMILES comes first, the peptide text is derived from it. Bridges are numbered along the chain shown (N, C = ends). [ ]: non-standard residue; d: D form. The star is where a group is joined. pTerphenylCO(4''-OnC5H11) = CCCCCOc1ccc(-c2ccc(-c3ccc(C(=O)*)cc3)cc2)cc1; Orn(4R-OH,5R-OH) = O=C([C@H](C[C@@H](O)[C@@H](O)N[*:3])N[*:1])[*:2]; hTyr(3S-OH,4S-OH) = N[C@H](C(=O)O)[C@H](O)[C@@H](O)c1ccc(O)cc1; Pro(3S-OH,4S-Me) = C[C@H]1CN[C@H](C(=O)O)[C@H]1O; Hyp = O=C(O)[C@@H]1C[C@@H](O)CN1
metric: solubility

compound: CCCCCOc1ccc(-c2ccc(-c3ccc(C(=O)N[C@H]4C[C@@H](O)[C@@H](O)NC(=O)[C@@H]5[C@@H](O)[C@@H](C)CN5C(=O)[C@H]([C@@H](C)O)NC(=O)[C@H]([C@H](O)[C@@H](O)c5ccc(O)cc5)NC(=O)[C@@H]5C[C@@H](O)CN5C(=O)[C@H]([C@@H](C)O)NC4=O)cc3)cc2)cc1 [anidulafungin, reference compound] ({pTerphenylCO(4''-OnC5H11)}-[Orn(4R-OH,5R-OH)]T[Hyp][hTyr(3S-OH,4S-OH)]T[Pro(3S-OH,4S-Me)]; lactam 1-C)
metric: solubility
endpointValue: > 26.8 mg/mL

compound: CCCCCOc1ccc(-c2ccc(-c3ccc(C(=O)N[C@H]4C[C@@H](O)C(OCC[N+](C)(C)C)NC(=O)C5[C@@H](O)[C@@H](C)CN5C(=O)C([C@@H](C)O)NC(=O)C([C@H](O)[C@@H](O)c5ccc(O)cc5)NC(=O)C5C[C@@H](O)CN5C(=O)C([C@@H](C)O)NC4=O)cc3)cc2)cc1 (some centres unmarked) [compound 1]
metric: solubility
endpointValue: > 34.1 mg/mL
